This collection of values is drawn from patent US20120225909A1.

target: human α1A-adrenergic receptor (Homo sapiens, UniProt P35348); experiment: Test Case 4-A: human α1A-adrenergic receptor agonist activity (HEK293, Ca flux, Fura-2); assay type: cell-based; design: expressed in transfected cells; host or cells: HEK293 cells, pcDNA3.1; conditions: HEK293; read-out: α1A receptor I.A.
Sequence (P35348 whole entry): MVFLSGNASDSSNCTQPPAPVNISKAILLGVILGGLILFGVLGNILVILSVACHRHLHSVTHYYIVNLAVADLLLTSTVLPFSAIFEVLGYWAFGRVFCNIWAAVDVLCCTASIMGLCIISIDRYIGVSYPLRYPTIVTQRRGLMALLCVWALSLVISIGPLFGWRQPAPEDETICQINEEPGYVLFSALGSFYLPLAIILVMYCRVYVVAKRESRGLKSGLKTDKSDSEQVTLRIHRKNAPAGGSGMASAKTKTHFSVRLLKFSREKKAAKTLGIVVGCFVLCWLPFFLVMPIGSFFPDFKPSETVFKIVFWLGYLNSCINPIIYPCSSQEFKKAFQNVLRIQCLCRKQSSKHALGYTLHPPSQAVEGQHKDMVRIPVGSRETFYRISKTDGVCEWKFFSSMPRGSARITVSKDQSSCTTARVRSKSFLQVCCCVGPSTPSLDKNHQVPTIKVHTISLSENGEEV
Kindly state Emax for each of the entries shown.
One number for each entry, in %.

Hello, I would appreciate it if you could give Emax for each entry below.
1. O=S(=O)(Nc1cccc([C@@H](O)CNCCOc2ccc3c(CO)n[nH]c3c2)c1)C1CCC1
2. O=S(=O)(Nc1cccc([C@@H](O)CNCCOc2ccc3c(C4CC4)n[nH]c3c2)c1)C1CC1
3. Cc1n[nH]c2cc(OCCNC[C@H](O)c3cccc(NS(=O)(=O)c4ccccc4O)c3)ccc12
4. Cc1n[nH]c2cc(OCCNC[C@H](O)c3cccc(NS(=O)(=O)c4cnn(C)c4)c3)ccc12
5. Cn1cc(S(=O)(=O)Nc2cccc([C@@H](O)CNCCOc3ccc4c(C5CC5)n[nH]c4c3)c2)cn1
6. Cc1n[nH]c2cc(OCCNC[C@H](O)c3cccc(NS(=O)(=O)c4cccc(O)c4)c3)ccc12
7. CCc1n[nH]c2cc(OCCNC[C@H](O)c3cccc(NS(=O)(=O)CC(F)(F)F)c3)ccc12

[89, 0, 0, 0, 41, 0, 15]

====

molecular target: human β2-adrenergic receptor (Homo sapiens); construct: expressed in transfected cells; host or cells: CHO (Chinese hamster ovary) cells, pcDNA3; experiment: Test Case 3-B: human β2-adrenergic receptor agonist activity; format: cell-based; details: read-out: β2 receptor I.A.
Sequence (P07550 whole entry): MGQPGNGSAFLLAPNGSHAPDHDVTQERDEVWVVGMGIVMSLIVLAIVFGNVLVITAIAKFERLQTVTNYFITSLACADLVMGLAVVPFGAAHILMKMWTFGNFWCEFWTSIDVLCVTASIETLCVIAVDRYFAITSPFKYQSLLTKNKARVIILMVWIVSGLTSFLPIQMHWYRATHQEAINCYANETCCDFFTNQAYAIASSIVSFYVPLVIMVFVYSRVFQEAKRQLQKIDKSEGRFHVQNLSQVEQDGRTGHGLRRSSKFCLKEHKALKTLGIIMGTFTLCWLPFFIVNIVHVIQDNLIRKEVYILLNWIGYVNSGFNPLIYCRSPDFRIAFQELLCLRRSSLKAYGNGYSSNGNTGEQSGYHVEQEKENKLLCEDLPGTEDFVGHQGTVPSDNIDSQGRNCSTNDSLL
Kindly state Emax for each of the entries shown.
Give bare numbers, in %.

> print(dat)
                         chemical.structure                       experimental.system  readout.type  numeric.result
1  CNc1cccc(S(=O)(=O)Nc2cccc([C@@H](O)CNCCOc3ccc4c(C)n[nH]c4c3)c2)c1  human β2-adrenergic receptor (Homo sapiens)          Emax               2
2  CCc1n[nH]c2cc(OCCNC[C@H](O)c3cccc(NS(=O)(=O)c4cccc(N)c4)c3)ccc12  human β2-adrenergic receptor (Homo sapiens)          Emax              -1

Next:
GET /values?item= `Cc1cccc(S(=O)(=O)Nc2cccc([C@@H](O)CNCCOc3ccc4c(C)n[nH]c4c3)c2)c1` &system= human β2-adrenergic receptor (Homo sapiens) returns Emax: -3
